Target: T1, Pin3, Q06449
T1 sequence (Q06449 53-122, looked up): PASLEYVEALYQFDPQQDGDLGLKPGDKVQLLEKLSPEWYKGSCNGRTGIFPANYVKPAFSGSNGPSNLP
Test: SPOT array
Conditions: median of control spots 2171
measurement_type: SPOT intensity

**Q:** Tell me the measured SPOT intensity of `PAPPPPPRASRPTPN` , please.
**A:** 6

**Q:** # lookup: SPOT intensity of `DKSRPPRPPPKPLHL`
**A:** 0

**Q:** Entry `LEFRAILFIPKRAPF` has what SPOT intensity?
**A:** 68

1. SKAKRPKFLLDLQIK
2. NMLKKKPLKKPLKRF
3. KRRAPPPVPKKPSSR
**Q:** // ascending sort on recorded SPOT intensity // list labels; follow requested order
**A:** 1, 3, 2
(1: 4, 3: 14, 2: 34)

I. SAPDIPPRSPNRNAH
II. TEVPIPRRPPPPQAA
**Q:** Lab log: flag the item ( I or II ) with the smaller SPOT intensity figure. Respond using the label that marks the chosen record.
**A:** II

A. GSKSGPPPRPKKPST
B. PSTMDFPKLPSFQNS
C. AKDLIVPRRPEWNEG
**Q:** Descending sort on SPOT intensity required. List the labels according to the requested ordering.
**A:** C, B, A

a. GKKVRPLLVLLLSRA
b. AHFQPQRTAPKPPIS
c. RRRRRPHRIERPLSN
d. VTHRLRISIPGITGR
**Q:** Ascending by SPOT intensity, please. Show the ranking through the labels, in the order asked for.
**A:** a, c, b, d
(a: 0, c: 1, b: 5, d: 46)

# credit: paper PMC2756588
